experiment: Intrinsic clearance in rat hepatocytes at 3 uM assessed per 10^6 cells up to 45 mins […] by LC-MS/MS analysis; format: ADME, cell-based, Hepatocyte; conditions: read-out: CLH
Overview of recorded hepatocyte CLint at 3 µM for various molecules
recordedMetric: hepatocyte CLint at 3 µM (µL/min/1e6 cells)

cpdsmiles=Cc1c(-c2cncc(-c3ccc(OC(F)(F)F)cc3)c2)[nH]c2ccccc2c1=O readoutnumber=1.8
cpdsmiles=COc1ccc2c(=O)c(C)c(-c3cncc(-c4ccc(OC(F)(F)F)cc4)c3)[nH]c2c1 readoutnumber=1.2
cpdsmiles=Cc1c(-c2cncc(-c3ccc(Cl)c(Cl)c3)c2)[nH]c2ccccc2c1=O readoutnumber=9.9
cpdsmiles=COc1ccc2c(=O)c(C)c(-c3cncc(-c4ccc(Cl)c(Cl)c4)c3)[nH]c2c1 readoutnumber=4.9
cpdsmiles=Cc1c(-c2ccnc(-c3ccc(OC(F)(F)F)cc3)c2)[nH]c2ccccc2c1=O readoutnumber=2.5
